run.description: insulin gene promoter stimulation in islet cells – imaging, TRM-6 cells (human fetal islet line), eGFP reporter, cell count, primary screen (AID 1296;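 also: cells counted after 48 h compound exposure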)
condition.parameters: at 2 µM; measured here: cell count (toxicity)
The campaign covered roughly 130,000 compounds. About 1,000 (0.77%) were called active. Another 1% or so got no clear call; they are omitted. What follows is part of a selection rich in actives, with near analogues and random picks from the rest.
# normalized cell count annotations
readout.kind: normalized cell count (%)

{"molecule": "Cc1onc(C(=O)NN)c1C(=O)N1CCN(C(c2ccccc2)c2ccccc2)CC1", "reading.unit": "%", "result": 29.3}
{"molecule": "COC(=O)c1[nH]c2ccccc2c1NC(=O)CN1CCCc2ccccc21", "reading.unit": "%", "result": 75.4}
{"molecule": "COc1cccc(NC(=O)CN(C)C(C)C(=O)Nc2ccc(C#N)cc2)c1 (stereo not drawn)", "reading.unit": "%", "result": 96.1}
{"molecule": "Cc1cccc(-n2cc(CN3CCN(C(=O)c4ncn[nH]4)CC3)c(-c3cccc(F)c3)n2)c1", "reading.unit": "%", "result": 108}
{"molecule": "CCCC(=O)NC(Nc1ccccc1OC)C(Cl)(Cl)Cl (stereo not drawn)", "reading.unit": "%", "result": 88}
{"molecule": "CC1(C)CC(=O)C(N=Nc2ccc(S(=O)(=O)N3CCCCCC3)cc2)=C(O)C1", "reading.unit": "%", "result": 78.9}
{"molecule": "COc1ccc(-c2nc(-c3ccccc3)no2)c(OC)c1", "reading.unit": "%", "result": 103}
{"molecule": "O=C(CN(c1cccc(Cl)c1)S(=O)(=O)c1ccccc1)NN=C1CCCC1", "reading.unit": "%", "result": 82.1}
